- tested system: intracellular phosphorylation of EGFR in NCI-H1975 cell line that harbors the EGFR L858R T790M mutations (Homo sapiens, UniProt P00533, L858R/T790M)
- Construct: NCI-H1975 cell line that harbors the EGFR L858R T790M mutations (ATCC, CRL-5908); host or cells: NCI-H1975
- Sequence (P00533 25-1210 T790M/L858R): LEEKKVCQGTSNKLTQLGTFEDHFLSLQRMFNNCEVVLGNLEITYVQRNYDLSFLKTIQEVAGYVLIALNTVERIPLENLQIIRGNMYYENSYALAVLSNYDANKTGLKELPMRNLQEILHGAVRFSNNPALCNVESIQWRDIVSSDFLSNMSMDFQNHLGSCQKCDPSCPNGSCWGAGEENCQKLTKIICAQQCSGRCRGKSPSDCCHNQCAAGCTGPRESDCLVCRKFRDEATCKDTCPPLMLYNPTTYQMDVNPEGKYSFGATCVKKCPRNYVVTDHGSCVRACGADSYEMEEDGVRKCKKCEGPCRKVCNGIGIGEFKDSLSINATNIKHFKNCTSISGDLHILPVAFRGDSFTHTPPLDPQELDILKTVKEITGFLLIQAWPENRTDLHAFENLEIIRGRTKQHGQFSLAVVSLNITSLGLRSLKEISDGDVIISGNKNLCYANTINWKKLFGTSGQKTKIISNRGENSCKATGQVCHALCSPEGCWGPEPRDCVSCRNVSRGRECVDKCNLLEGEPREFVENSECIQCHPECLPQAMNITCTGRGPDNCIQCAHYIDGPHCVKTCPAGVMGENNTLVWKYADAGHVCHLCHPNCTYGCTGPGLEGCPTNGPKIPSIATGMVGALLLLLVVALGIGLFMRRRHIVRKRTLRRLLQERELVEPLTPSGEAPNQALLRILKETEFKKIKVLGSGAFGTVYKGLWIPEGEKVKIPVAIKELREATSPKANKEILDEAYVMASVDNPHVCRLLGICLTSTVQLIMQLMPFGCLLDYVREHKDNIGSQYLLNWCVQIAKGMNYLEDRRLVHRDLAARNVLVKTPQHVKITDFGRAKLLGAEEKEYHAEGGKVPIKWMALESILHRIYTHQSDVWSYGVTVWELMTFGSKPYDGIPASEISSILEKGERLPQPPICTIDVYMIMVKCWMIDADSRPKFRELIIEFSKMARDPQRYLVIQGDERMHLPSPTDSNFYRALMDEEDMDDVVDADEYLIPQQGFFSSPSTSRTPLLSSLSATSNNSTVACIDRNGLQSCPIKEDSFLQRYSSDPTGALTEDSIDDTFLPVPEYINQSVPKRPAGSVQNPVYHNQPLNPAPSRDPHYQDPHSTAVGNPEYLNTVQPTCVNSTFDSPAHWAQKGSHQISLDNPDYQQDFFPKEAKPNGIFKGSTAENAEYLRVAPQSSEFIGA
- protocol: NCI-H1975 pEGFR AlphaLISA assay
- Format: cell-based
- setup conditions: NCI-H1975 cells (EGFR L858R T790M), p-EGFR (Tyr1068), 4-5 hours incubation; read-out: Ext pEGFR H1975 GMean IC50 (nM) Protocol: @Pharmaron AlphaLISA (Num)
attribute measured: IC50

CC(C)c1cnc(N2CC[C@H]2CO)c2cnc(Nc3ccnc(N4CC[C@@H](O)[C@@](C)(F)C4)n3)cc12 = < 10 nM
CC(C)c1cnc(N2C[C@@H](F)[C@H]2C)c2cnc(Nc3ccnc(N4CC[C@@H](O)[C@@](C)(F)C4)n3)cc12 (single isomer, unassigned) = < 10 nM
COC(=O)NCC1CN(c2ncc(C(C)C)c3cc(Nc4ccnc(N5CC[C@@H](O)[C@@](C)(F)C5)n4)ncc23)C1 = 20 to 30 nM
